tested target: T1, Peptide B (human PAR-2), unbiotinylated (Human)
T1 construct: also called Peptide B No Biotin
T1 peptide: SLIGKVDGTSHVTG
experiment notes: SPR, antibody captured
Provide the recorded Kd for the entries that follow.
Give the number; nM is assumed, so skip it.

[ask] Entry under review: H2M618N (antibody, V domains shown, chimeric: human variable, mouse constant domains) VH: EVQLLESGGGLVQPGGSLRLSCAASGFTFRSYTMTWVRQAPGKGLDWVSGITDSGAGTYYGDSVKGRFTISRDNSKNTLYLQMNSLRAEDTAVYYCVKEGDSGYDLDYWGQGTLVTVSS VL: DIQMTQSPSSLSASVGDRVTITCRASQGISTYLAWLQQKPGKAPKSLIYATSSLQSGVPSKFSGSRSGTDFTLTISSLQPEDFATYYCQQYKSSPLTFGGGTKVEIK . Reported Kd?
[reply] 126

[ask] Query: Kd; subject: H2M589N (antibody, V domains shown, chimeric: human variable, mouse constant domains) VH: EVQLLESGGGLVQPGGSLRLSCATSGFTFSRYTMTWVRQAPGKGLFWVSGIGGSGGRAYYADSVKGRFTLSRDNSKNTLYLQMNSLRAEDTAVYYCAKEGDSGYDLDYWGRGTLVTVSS VL: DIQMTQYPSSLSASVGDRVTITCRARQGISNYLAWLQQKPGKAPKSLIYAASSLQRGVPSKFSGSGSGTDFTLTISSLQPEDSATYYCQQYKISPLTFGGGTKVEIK
[reply] 128

[ask] Kd for H2M611N (antibody, V domains shown, chimeric: human variable, mouse constant domains) VH: EVQLLESGGGLVQPGGSLRLSCAASGFTFSSYAMTWVRQAPGKGLYWVSAISGSGGSAYYADSVKGRFTISRDNSKNTLYLQMNSLRAEDTAVYYCAKEGDSGYDLDYWGRGTLVTVSS VL: DIQMTQSPSSLSASVGDRVTITCRARQGISNYLAWLQQKPGKAPKSLIYAASSLQSGVPSKFSGSGSGTDFTLTISSLQPEDFATYYCQQYKSSPLTFGGGTKVEIK ?
[reply] 1090

[ask] Query (binder): H2M588N (antibody, V domains shown, chimeric: human variable, mouse constant domains) VH: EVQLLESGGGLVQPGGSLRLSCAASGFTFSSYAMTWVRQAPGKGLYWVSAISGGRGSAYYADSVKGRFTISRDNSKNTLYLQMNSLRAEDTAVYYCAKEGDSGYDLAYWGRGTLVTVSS VL: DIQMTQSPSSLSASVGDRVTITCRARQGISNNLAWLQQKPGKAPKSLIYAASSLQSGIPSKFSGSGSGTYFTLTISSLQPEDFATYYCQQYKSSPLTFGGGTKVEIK ; field requested: Kd
[reply] 61.7

[ask] Please report the recorded Kd for H2M591N (antibody, V domains shown, chimeric: human variable, mouse constant domains) VH: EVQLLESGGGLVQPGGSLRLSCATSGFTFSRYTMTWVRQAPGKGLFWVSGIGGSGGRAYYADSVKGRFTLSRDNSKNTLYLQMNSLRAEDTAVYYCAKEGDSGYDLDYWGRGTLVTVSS VL: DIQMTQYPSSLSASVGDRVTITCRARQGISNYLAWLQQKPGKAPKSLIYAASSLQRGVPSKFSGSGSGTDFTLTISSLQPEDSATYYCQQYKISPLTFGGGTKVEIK .
[reply] 151
